test target: NPM-ALK-BaF3 (Homo sapiens)
Construct: NPM (nuclear phosphoprotein / nucleophosmin, NPM1, P06748) fusion partner; expressed in transfected cells; host or cells: BaF3; the other entry of the earlier key: NPM1 (P06748, Nucleophosmin)
Sequence (Q9UM73 with tags, fused parts or gaps): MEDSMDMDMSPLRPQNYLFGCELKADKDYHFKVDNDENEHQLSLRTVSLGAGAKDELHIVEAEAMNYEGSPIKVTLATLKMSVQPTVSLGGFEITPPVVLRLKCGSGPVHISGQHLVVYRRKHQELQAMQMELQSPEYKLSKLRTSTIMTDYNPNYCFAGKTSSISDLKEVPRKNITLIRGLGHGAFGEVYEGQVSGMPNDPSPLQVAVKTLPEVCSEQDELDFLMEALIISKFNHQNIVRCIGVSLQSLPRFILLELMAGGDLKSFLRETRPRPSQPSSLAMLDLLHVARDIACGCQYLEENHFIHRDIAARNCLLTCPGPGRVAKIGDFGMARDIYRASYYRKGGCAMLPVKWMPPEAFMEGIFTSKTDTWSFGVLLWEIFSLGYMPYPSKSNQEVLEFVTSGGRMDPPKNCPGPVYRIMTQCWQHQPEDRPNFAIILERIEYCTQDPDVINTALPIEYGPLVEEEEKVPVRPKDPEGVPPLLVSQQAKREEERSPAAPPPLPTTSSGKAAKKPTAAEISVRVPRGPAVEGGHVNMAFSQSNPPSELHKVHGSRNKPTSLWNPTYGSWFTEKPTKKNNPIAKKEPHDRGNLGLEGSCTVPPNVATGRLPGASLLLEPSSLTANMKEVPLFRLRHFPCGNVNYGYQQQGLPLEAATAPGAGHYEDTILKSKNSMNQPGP
protocol: Growth inhibition of BaF3 cells stably transfected with kinase NPM-ALK (MTS)
Type: cell-based
particulars: compound concentration 3.3 μM, read-out: cell growth inhibition rate, NPM-ALK
Measured inhibition at 3.3 µM of individual entries
measured attribute: inhibition at 3.3 µM (%)

                                    compound  unit_of_measure  assay_result
 0  COc1cc(N2CCN(C)CC2)ccc1Nc1nc(Nc2ccccc2NS(C)(=O)=O)c2sccc2n1 [IH-3]                %          79.2
 1  CC(C)S(=O)(=O)c1ccccc1Nc1nc(Nc2ccc(N3CCN(C)CC3)cc2)nc2ccsc12 [IB-3]                %          94.2
 2  COc1cc(N2CCC(N(C)C)CC2)ccc1Nc1nc(Nc2ccccc2[S+]([O-])C(C)C)c2sccc2n1 (centres unmarked) [IJ-6]                %          81.9
 3  CNC(=O)c1ccccc1Nc1nc(Nc2ccc(N3CCC(N4CCN(C)CC4)CC3)cc2)nc2ccsc12 [II-6]                %          36.9
 4  CNC(=O)c1cccc(F)c1Nc1nc(Nc2cc3c(cc2OC)CCN3C(=O)CN(C)C)nc2ccsc12 [IF-1]                %          6.16
 5  COC(=O)c1cccc(Nc2nc(Nc3cc(C)c(C4CCN(C)CC4)cc3OC(C)C)nc3ccsc23)c1 [ID-5]                %          93.9
 6  CC(C)S(=O)(=O)c1ccccc1Nc1nc(Nc2ccc(C(=O)N3CCC(N4CCN(C)CC4)CC3)cc2)nc2ccsc12 [IB-29]                %          97.5
 7  CCOc1cc(C(=O)N2CCC(N3CCN(C)CC3)CC2)ccc1Nc1nc(Nc2ccccc2S(=O)(=O)C(C)C)c2sccc2n1 [IB-13]                %          90.3
 8  CC(C)S(=O)(=O)c1ccccc1Nc1nc(Nc2ccc(S(=O)(=O)N3CCN(C)CC3)cc2)nc2ccsc12 [IB-21]                %          72.1
 9  CNC(=O)c1ccccc1Nc1nc(Nc2ccc(N3CCN(C)CC3)cc2OC)nc2ccsc12 [II-3]                %          84.1
10  COC(=O)c1ccccc1Nc1nc(Nc2ccc(N3CCN(C)CC3)cc2OC)nc2ccsc12 [IE-3]                %          85.5

----------
test target: EML4-ALK-BaF3 (Homo sapiens)
Construct: EML4 (echinoderm microtubule associated protein like 4, Q9HC35) fusion partner; expressed in transfected cells; host or cells: BaF3; the other entry of the earlier key: EML4 (Q9HC35, Echinoderm microtubule-associated protein-like 4)
Sequence (Q9UM73 1058-1620 limits assumed): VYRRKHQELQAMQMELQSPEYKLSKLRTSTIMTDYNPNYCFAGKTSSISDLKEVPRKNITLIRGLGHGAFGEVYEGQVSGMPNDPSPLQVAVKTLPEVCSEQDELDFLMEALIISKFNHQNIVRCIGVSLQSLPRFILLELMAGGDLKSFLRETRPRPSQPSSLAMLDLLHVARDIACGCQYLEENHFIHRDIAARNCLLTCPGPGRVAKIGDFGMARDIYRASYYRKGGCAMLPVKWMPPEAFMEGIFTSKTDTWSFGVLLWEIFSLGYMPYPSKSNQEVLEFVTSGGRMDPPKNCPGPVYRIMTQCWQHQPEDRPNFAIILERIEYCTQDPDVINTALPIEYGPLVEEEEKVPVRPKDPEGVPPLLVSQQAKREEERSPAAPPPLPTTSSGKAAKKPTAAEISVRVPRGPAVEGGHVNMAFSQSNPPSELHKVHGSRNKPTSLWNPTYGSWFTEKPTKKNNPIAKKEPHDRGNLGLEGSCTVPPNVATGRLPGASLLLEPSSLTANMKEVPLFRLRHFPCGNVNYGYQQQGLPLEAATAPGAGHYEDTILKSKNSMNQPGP
protocol: Growth inhibition of BaF3 cells stably transfected with kinase EML4-ALK (MTS)
Assay type: cell-based
particulars: compound concentration 3.3 μM, read-out: cell growth inhibition rate, EML4-ALK
measured attribute: inhibition at 3.3 µM (%)

In [3]: df
Out[3]:
                                   molecule    measured_attribute  qualifier  assay_result
0  COc1cc(N2CCN(C)CC2)ccc1Nc1nc(Nc2ccccc2S(=O)(=O)C(C)(C)C)c2sccc2n1 [IO-3]  inhibition at 3.3 µM          =          98.7
1  COc1cc(N2CCC(N3CCN(C)CC3)CC2)ccc1Nc1nc(Nc2ccccc2C(=O)NC(C)C)c2sccc2n1 [IP-1]  inhibition at 3.3 µM          =          97.4
2  COc1cc2c(cc1Nc1nc(OCc3ccccc3S(=O)(=O)C(C)C)c3sccc3n1)N(C(=O)CN(C)C)CC2 [IT-1]  inhibition at 3.3 µM          =          99.8
3  CNC(=O)c1ccccc1Nc1nc(Nc2cc(C)c(C3CCN(C)CC3)cc2OC(C)C)nc2ccsc12 [II-8]  inhibition at 3.3 µM          >            99
4  COc1cc(N2CCC(N3CCCC3)CC2)ccc1Nc1nc(Nc2ccccc2P(=O)(C(C)C)C(C)C)c2sccc2n1 [IR-2]  inhibition at 3.3 µM          =          96.3
5  CNC(=O)c1ccccc1Nc1nc(Nc2ccc(N3CCC(N4CCN(C)CC4)CC3)cc2)nc2ccsc12 [II-6]  inhibition at 3.3 µM          =          92.9
6  CNC(=O)c1ccccc1Nc1nc(Nc2cc(C)c(C3CCN(C)CC3)cc2OC)nc2ccsc12 [II-9]  inhibition at 3.3 µM          =          99.9
7  COc1cc2c(cc1Nc1nc(Nc3ccccc3S(=O)(=O)C(C)(C)C)c3sccc3n1)N(C(=O)CN(C)C)CC2 [IO-1]  inhibition at 3.3 µM          =          97.1

----------
test target: NPM-ALK-BaF3 (Homo sapiens)
Construct: NPM (nuclear phosphoprotein / nucleophosmin, NPM1, P06748) fusion partner; expressed in transfected cells; host or cells: BaF3; the other entry of the earlier key: NPM1 (P06748, Nucleophosmin)
protocol: Growth inhibition of BaF3 cells stably transfected with kinase NPM-ALK (MTS)
Assay type: cell-based
particulars: compound concentration 3.3 μM, read-out: cell growth inhibition rate, NPM-ALK
measured attribute: inhibition at 3.3 µM (%)

In [3]: df
Out[3]:
                                    molecule    measured_attribute  assay_result
 0  CC(C)S(=O)(=O)c1ccccc1Nc1nc(Nc2ccc(OCc3ccccn3)cc2)nc2ccsc12  inhibition at 3.3 µM            66
 1  COC(=O)c1cccc(Nc2nc(Nc3cc4c(cc3OC)CCN4C(=O)CN(C)C)nc3ccsc23)c1  inhibition at 3.3 µM          73.4
 2  COc1cc(N2CCN(C)CC2)ccc1Nc1nc(Nc2ccccc2[S+]([O-])C(C)C)c2sccc2n1 (centres unmarked)  inhibition at 3.3 µM          88.8
 3  CC(C)S(=O)(=O)c1ccccc1Nc1nc(Nc2ccc(C(=O)N3CCN(C)CC3)cc2)nc2ccsc12  inhibition at 3.3 µM          97.3
 4  COC(=O)c1cccc(Nc2nc(Nc3ccc(N4CCC(N5CCCC5)CC4)cc3OC)nc3ccsc23)c1  inhibition at 3.3 µM          90.7
 5  COc1cc2c(cc1Nc1nc(NCc3ccccc3S(C)(=O)=O)c3sccc3n1)N(C(=O)CN(C)C)CC2  inhibition at 3.3 µM          73.7
 6  COc1cc(C2CCN(C)CC2)c(C)cc1Nc1nc(Nc2ccccc2NS(C)(=O)=O)c2sccc2n1  inhibition at 3.3 µM          84.2
 7  COc1cc(N2CCN(C)CC2)ccc1Nc1nc(Nc2ccccc2S(=O)(=O)C(C)C)c2sccc2n1  inhibition at 3.3 µM          83.7
 8  CCOc1cc(N2CCC(O)CC2)ccc1Nc1nc(Nc2ccccc2S(=O)(=O)C(C)C)c2sccc2n1  inhibition at 3.3 µM            86
 9  COc1cc2c(cc1Nc1nc(Nc3ccccc3[S+]([O-])C(C)C)c3sccc3n1)N(C(=O)CN(C)C)CC2 (centres unmarked)  inhibition at 3.3 µM          87.1
10  COC(=O)c1ccccc1Nc1nc(Nc2cc(C)c(C3CCN(C)CC3)cc2OC(C)C)nc2ccsc12  inhibition at 3.3 µM          86.1
11  CNC(=O)c1ccccc1Nc1nc(Nc2cc(C)c(C3CCN(C)CC3)cc2OC(C)C)nc2ccsc12  inhibition at 3.3 µM          86.6
12  COc1cc2c(cc1Nc1nc(Nc3ccccc3P(C)(C)=O)c3sccc3n1)N(C(=O)CN(C)C)CC2  inhibition at 3.3 µM          86.7
13  COC(=O)c1ccccc1Sc1nc(Nc2ccc(N3CCN(C)CC3)cc2OC)nc2ccsc12  inhibition at 3.3 µM          12.3
14  COc1cc(N2CCC(N3CCN(C)CC3)CC2)ccc1Nc1nc(Nc2cccc(NS(C)(=O)=O)c2)c2sccc2n1  inhibition at 3.3 µM          17.4
15  COc1cc2c(cc1Nc1nc(NCc3ccccc3S(=O)(=O)C(C)C)c3sccc3n1)N(C(=O)CN(C)C)CC2  inhibition at 3.3 µM          94.2
16  COc1cc(C2CCN(C)CC2)c(C)cc1Nc1nc(Nc2cccc(NS(C)(=O)=O)c2)c2sccc2n1  inhibition at 3.3 µM          87.6
17  CC(C)S(=O)(=O)c1ccccc1Nc1nc(Nc2ccc(N3CCC(N4CCN(C)CC4)CC3)cc2)nc2ccsc12  inhibition at 3.3 µM          93.2
18  CNC(=O)c1ccccc1Nc1nc(Nc2ccc(N3CCC(N4CCCC4)CC3)cc2OC)nc2ccsc12  inhibition at 3.3 µM          79.5
19  COc1cc(N2CCN(C)CC2)ccc1Nc1nc(Nc2ccccc2P(C)(C)=O)c2sccc2n1  inhibition at 3.3 µM          77.4

The origin of these recorded values is patent US11078213B2.
